As shown below, each of these compounds has a reported Ki value.
- study.system: hCRTH2 (Homo sapiens)
- Construct: expressed in transfected cells; host or cells: HEK (human embryonic kidney) cells expressing hCRTH2; membrane preparation
- Sequence (Q9Y5Y4 whole entry): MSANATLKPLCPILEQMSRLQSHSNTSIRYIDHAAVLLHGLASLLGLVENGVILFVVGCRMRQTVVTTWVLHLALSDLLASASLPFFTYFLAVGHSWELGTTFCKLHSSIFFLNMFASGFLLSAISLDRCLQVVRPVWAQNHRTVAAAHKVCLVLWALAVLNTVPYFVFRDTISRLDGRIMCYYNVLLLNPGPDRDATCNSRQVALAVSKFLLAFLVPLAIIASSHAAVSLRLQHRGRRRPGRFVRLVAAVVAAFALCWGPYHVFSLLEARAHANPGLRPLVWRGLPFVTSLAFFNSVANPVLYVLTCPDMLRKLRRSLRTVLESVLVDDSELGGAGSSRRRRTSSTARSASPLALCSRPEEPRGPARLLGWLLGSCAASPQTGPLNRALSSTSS
- experiment.description: Radioligand binding assay ([3H]PGD2 competition, HEK-hCRTH2 membranes)
- test.parameters: [3H]PGD2 binding, rated A-E (Table A)
measured.quantity: Ki

# compound, result
measured = [
    ("CC(CCc1nc2cc(C(=O)N3CCC(c4ccccc4)CC3)ccc2nc1-c1ccc(Cl)cc1)CC(=O)O (centres unmarked)", "2.1 to 20 nM"),
    ("O=C(O)Cc1cccc(CCc2nc3cc(C(=O)N[C@@H](CCO)c4ccccc4)ccc3nc2-c2ccc(F)cc2)c1", "201 to 700 nM"),
    ("O=C(O)CCCCc1nc2cc(C(=O)Nc3ccccc3)ccc2nc1-c1ccccc1 [15AA]", "20.1 to 200 nM"),
    ("O=C(O)CCCCc1nc2cc(C(=O)N[C@@H]3CCCc4cc(Cl)ccc43)ccc2nc1-c1ccc(Cl)cc1", "0.1 to 2 nM"),
    ("O=C(O)CCCCc1nc2cc(C(=O)N3CCNC(Cc4ccccc4)C3)ccc2nc1-c1ccccc1 (centres unmarked) [15K]", "2.1 to 20 nM"),
    ("O=C(O)CCCCc1nc2cc(C(=O)NCc3ccccc3Cl)ccc2nc1-c1ccccc1 [15V]", "0.1 to 2 nM"),
    ("O=C(O)CCCC(F)c1nc2cc(C(=O)N[C@@H]3CCCc4ccccc43)ccc2nc1-c1ccc(Cl)cc1 (some centres unmarked)", "20.1 to 200 nM"),
    ("O=C(O)CCCCc1nc2cc(C(=O)NC3Cc4ccccc4C3)ccc2nc1-c1ccc(F)cc1", "0.1 to 2 nM"),
]

---

# pKi per record follows
- study.system: hCRTH2 (Homo sapiens)
- Construct: expressed in transfected cells; host or cells: HEK (human embryonic kidney) cells expressing hCRTH2; membrane preparation
- experiment.description: Radioligand binding assay ([3H]PGD2 competition, HEK-hCRTH2 membranes)
- test.parameters: [3H]PGD2 competition, Table B
pKi: −log10 of the molar value.

# smiles.code, pKi
measured = [
    ("C[C@@H](NC(=O)c1ccc2nc(-c3ccccc3)c(CCCC(F)(F)C(=O)O)nc2c1)c1ccc(Cl)cc1", "6.70 to 7.70"),
    ("CN1CC2(CCN(C(=O)c3ccc4nc(-c5ccc(Cl)cc5)c(CCCCC(=O)O)nc4c3)CC2)CC1=O", "6.70 to 7.70"),
    ("O=C(O)CCCCc1nc2cc(C(=O)N3CC(n4ccnc4)C3)ccc2nc1-c1ccc(Cl)cc1", "6.70 to 7.70"),
    ("O=C(O)CCCCc1nc2cc(C(=O)N[C@H]3CCCc4ccncc43)ccc2nc1-c1ccc(Cl)cc1", "8.70 to 10.00"),
]

---

- study.system: hCRTH2 (Homo sapiens)
- Construct: expressed in transfected cells; host or cells: HEK (human embryonic kidney) cells expressing hCRTH2; membrane preparation
- experiment.description: Radioligand binding assay ([3H]PGD2 competition, HEK-hCRTH2 membranes)
- test.parameters: [3H]PGD2 binding, rated A-E (Table A)
measured.quantity: Ki

# molecule, result
data = [
    ("O=C(O)CCCc1nc2cc(C(=O)NCc3cccc(Cl)c3)ccc2nc1-c1ccccc1 [compound 23]", "20.1 to 200 nM"),
    ("CC(CCc1nc2cc(C(=O)N[C@H](c3ccc(F)cc3)C(F)(F)F)ccc2nc1-c1ccc(Cl)cc1)CC(=O)O (stereo partly shown) [17G]", "2.1 to 20 nM"),
    ("CC(CCc1nc2cc(C(=O)NC3Cc4ccccc4C3)ccc2nc1-c1ccc(C(F)(F)F)cc1)CC(=O)O (stereo not shown) [17T]", "0.1 to 2 nM"),
    ("O=C(O)CCCCc1nc2cc(C(=O)NCc3cccc(F)c3)ccc2nc1-c1ccccc1 [15AC]", "0.1 to 2 nM"),
]
